The origin of these recorded values is patent US12174198B2.

target_or_system: PGL-3 condensates (Caenorhabditis elegans, UniProt G5EBV6)
Sequence (G5EBV6 whole entry): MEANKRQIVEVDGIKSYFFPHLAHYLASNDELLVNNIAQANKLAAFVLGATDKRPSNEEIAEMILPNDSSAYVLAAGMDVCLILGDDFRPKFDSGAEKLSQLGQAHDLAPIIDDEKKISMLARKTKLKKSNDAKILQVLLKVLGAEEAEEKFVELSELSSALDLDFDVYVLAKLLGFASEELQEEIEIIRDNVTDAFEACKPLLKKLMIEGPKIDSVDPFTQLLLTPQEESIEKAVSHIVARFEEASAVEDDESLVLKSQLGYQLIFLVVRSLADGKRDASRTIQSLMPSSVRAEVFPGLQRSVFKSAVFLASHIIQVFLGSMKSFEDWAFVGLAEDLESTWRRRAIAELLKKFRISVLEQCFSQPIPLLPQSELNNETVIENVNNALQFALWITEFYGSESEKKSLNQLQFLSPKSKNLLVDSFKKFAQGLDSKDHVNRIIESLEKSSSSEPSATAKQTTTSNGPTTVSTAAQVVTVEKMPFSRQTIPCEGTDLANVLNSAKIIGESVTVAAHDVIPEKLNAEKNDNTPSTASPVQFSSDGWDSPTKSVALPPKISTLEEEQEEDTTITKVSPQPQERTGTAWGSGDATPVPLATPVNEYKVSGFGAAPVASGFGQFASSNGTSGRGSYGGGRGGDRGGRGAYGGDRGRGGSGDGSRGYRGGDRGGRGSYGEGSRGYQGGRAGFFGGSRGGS
test_protocol: Fluorescence imaging of dye partitioning in PGL-3 condensates (I-in, I-out)
Type: physicochemical
study_conditions: inside PGL-3 condensate; 10 μM dye, 5 μM protein; image 1; one day of experiments
Counter-ions that a name gives are not always drawn.
assay_endpoint: Intensity Inside with Dye 1

1) N=C(N)c1ccc(-c2cc3ccc(C(=N)N)cc3[nH]2)cc1 :: 211.3
2) COC(=O)c1ccccc1-c1c2ccc(=N)cc-2oc2cc(N)ccc12.Cl :: 2874.7
3) O=C1OC2(c3ccc(O[C@@H]4O[C@H](CO)[C@H](O)[C@H](O)[C@H]4O)cc3Oc3cc(O[C@@H]4O[C@H](CO)[C@H](O)[C@H](O)[C@H]4O)ccc32)c2ccccc21 [Dye 12, Fluorescein di(β-D-galacto-pyranoside)] :: 689.4
4) CC(=O)c1cc2cc3c4c(c2oc1=O)CCCN4CCC3 :: 212.2
5) N#CC1=c2cc3c4c(c2Oc2c1cc1c5c2CCCN5CCC1)CCC[N+]=4CCC3 :: 714.9
6) O=C1OC2(c3ccc(O)cc3Oc3cc(O)ccc32)c2ccccc21 :: 4585.4
7) CCN(CC)c1ccc2c(-c3ccccc3C(=O)O)c3ccc(=[N+](CC)CC)cc-3oc2c1 :: 5570.5
8) O=c1cc(C(F)(F)F)c2ccc(O)cc2o1 [Dye 2, 7-Hydroxy-4-(trifluoromethyl)-coumarin] :: 273.9
9) CC(=O)Oc1ccc2c(c1)Oc1cc(OC(C)=O)ccc1C21OC(=O)c2ccccc21 [Dye 9, Fluorescein diacetate] :: 824.1
10) O=C([O-])c1ccccc1C1=c2cc3c4c(c2Oc2c1cc1c5c2CCCN5CCC1)CCC[N+]=4CCC3 [Dye 17, Rhodamine 101 inner salt] :: 12579.6
11) O=C(O)c1cc2cc3c4c(c2oc1=O)CCCN4CCC3 :: 2228.4
12) CC(=O)N[C@H]1[C@H](Oc2ccc3c(c2)Oc2cc(O)ccc2C32OC(=O)c3ccccc32)O[C@H](CO)[C@H](O)[C@@H]1O (some centres unmarked) :: 1912.6
13) O=C(CCCC[C@@H]1SCC2NC(=O)NC21)NCCNC(=O)c1ccc(-c2c3ccc(=O)cc-3oc3ccc(O)cc23)c(C(=O)O)c1 (some centres unmarked) :: 2939.4
14) CC/N=c1/cc2oc3cc(NCC)c(C)cc3c(-c3ccccc3C(=O)NCCOCCOCCN)c-2cc1C.O=C(O)C(F)(F)F :: 6831.9
